- Test system: L. infantum axenic amastigotes
- testName: apoptosis/necrosis profiling, annexin V/PI staining, axenic amastigotes
- Type: cell-based, Leishmania infantum
- conditionNotes: 4 × EC50, 24 h
Marks after values point to notes of the source that are not given here.

{"columns": ["compound", "% cells, Early Apoptosis (AV+, PI−)"],
 "data": [
  ["O=C(/N=C(/NCc1ccccc1)Nc1ccc(Br)cc1)c1ccccc1", "7.55 ± 1.18 ^d %"],
  ["O=C(/N=C(/NCc1ccccc1)Nc1ccc(I)cc1)c1ccccc1", "8.01 ± 0.14 ^d %"],
  ["CC(C)(C)c1ccc(N/C(=N\\C(=O)c2ccccc2)NCc2ccccc2)cc1", "9.06 ± 0.70 ^d %"],
  ["C[C@@H]1[C@H](O)[C@@H](C)/C=C/C=C/C=C/C=C/C=C/C=C/C=C/[C@H](O[C@@H]2O[C@H](C)[C@@H](O)[C@H](N)[C@@H]2O)C[C@@H]2O[C@](O)(C[C@@H](O)C[C@@H](O)[C@H](O)CC[C@@H](O)C[C@@H](O)CC(=O)O[C@H]1C)C[C@H](O)[C@H]2C(=O)O [Amphotericin B, reference compound]", "0.60 ± 0.42%"]
]}
